Source listed as patent US5885985A.

- systemTested: neuronal isoform of nitric oxide synthetase (Rattus norvegicus)
- Construct: Enzyme was isolated from rat hippocampus or cerebellum
- Sequence (P29476 whole entry, canonical isoform): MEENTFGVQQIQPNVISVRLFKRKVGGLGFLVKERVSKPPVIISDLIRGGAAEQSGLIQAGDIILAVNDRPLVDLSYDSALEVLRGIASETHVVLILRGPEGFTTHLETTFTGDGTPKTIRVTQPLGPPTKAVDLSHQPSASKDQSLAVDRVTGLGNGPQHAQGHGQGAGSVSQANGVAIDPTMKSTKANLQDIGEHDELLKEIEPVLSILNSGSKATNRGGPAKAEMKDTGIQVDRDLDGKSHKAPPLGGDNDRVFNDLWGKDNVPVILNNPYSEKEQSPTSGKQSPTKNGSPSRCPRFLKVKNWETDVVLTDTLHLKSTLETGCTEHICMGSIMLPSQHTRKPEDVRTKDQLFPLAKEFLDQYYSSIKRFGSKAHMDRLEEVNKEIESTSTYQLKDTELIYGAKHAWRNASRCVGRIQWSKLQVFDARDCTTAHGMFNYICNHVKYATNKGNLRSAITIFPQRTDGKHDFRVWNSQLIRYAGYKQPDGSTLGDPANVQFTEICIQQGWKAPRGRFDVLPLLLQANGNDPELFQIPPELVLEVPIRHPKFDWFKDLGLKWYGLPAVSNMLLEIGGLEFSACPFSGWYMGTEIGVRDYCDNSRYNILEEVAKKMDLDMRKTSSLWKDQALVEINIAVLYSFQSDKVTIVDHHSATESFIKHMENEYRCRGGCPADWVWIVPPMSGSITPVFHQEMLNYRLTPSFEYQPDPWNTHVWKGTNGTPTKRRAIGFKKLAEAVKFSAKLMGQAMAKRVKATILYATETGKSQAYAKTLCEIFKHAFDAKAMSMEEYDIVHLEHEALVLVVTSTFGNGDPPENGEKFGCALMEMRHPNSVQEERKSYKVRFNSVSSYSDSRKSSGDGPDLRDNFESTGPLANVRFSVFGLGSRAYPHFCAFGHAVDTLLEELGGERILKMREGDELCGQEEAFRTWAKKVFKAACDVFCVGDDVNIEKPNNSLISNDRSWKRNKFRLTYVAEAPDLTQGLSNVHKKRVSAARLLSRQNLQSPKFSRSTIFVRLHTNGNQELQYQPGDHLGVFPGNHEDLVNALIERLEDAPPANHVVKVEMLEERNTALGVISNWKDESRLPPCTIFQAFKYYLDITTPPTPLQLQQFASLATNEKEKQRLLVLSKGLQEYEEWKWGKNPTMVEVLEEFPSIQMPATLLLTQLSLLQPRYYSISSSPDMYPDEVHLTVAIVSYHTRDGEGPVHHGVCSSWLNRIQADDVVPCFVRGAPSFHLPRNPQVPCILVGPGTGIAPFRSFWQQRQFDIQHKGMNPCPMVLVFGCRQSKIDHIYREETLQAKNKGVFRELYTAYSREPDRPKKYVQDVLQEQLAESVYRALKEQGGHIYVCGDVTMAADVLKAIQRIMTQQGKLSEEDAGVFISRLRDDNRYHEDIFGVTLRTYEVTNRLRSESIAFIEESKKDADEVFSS
- testDetails: biochemical
- statedConditions: enzyme from rat hippocampus or cerebellum; 22° C., 10 minutes; read-out: IC50 in the screen for activity against the neuronal isoform of nitric oxide synthetase
pIC50: −log10 of the molar value. Structures can show the parent of a compound that is named as a salt.
measuredAttribute: pIC50

Ask: What measured pIC50 goes with CC(=O)Nc1cccc(NC(=N)N2CCCC2)c1 [Example 1, monohydrochloride] ?
Result: > 5.00

* * *

- systemTested: macrophage isoform of nitric oxide synthetase (Mus musculus)
- Construct: endogenous in cells
- testDetails: Screen for Macrophage Nitric Oxide Synthase Inhibition Activity
- statedConditions: lysate of induced murine J774A-1 cells; 1 hour at room temperature; read-out: IC50 in the screen for activity against the macrophage isoform of nitric oxide synthetase
Where a name gives a salt, the structure may show the parent alone.
measuredAttribute: IC50

Ask: What measured IC50 goes with CC(=O)Nc1cccc(NC(=N)N2CCCC2)c1 [Example 1, monohydrochloride] ?
Result: > 100 µM
